IC50 for assorted compounds
Tested on: SUDHL10
ASSAY PROTOCOL: Induction of cytotoxicity, SUDHL10 (Assay 6)
EXPERIMENTAL CONDITIONS: read-out: IC50 Cytotox SUDHL10 [M] (median), SUDHL10 cells, 5 h, CellTiter-Glo

{"COMPOUND": "CCc1c2c(nn1C)COCCCCn1c(C(=O)O)c(CCCOc3cccc4cc(F)ccc34)c3ccc(F)c-2c31 (single isomer, unassigned; enantiomer 1) [Example 22]", "IC50 (M)": "5.5e-07"}
{"COMPOUND": "Cc1c2c(nn1C)COCCCCn1c(C(=O)O)c(CCCOc3ccc(F)c4ccccc34)c3ccc(F)c-2c31 (single isomer, unassigned; enantiomer 1) [Example 16]", "IC50 (M)": "4.3e-06"}
{"COMPOUND": "CCc1c2c(nn1C)COCCCCn1c(C(=O)O)c(CCCOc3ccc(F)c4ccccc34)c3ccc(F)c-2c31 (single isomer, unassigned; enantiomer 1) [Example 27]", "IC50 (M)": "1.8e-06"}

meta.source: patent US11286263B2
